Read-out: X-box binding protein 1 (XBP1), XBP1 (gene 7494)
test-protocol: LTEA_HepaRG_XBP1: Life Technologies and Expression Analysis (LTEA) Assay for X-box binding protein 1 (XBP1) using HepaRG (AID 2283540)
condition-description: mRNA level, 48 h; actives raise or lower the signal
Activity calls are given as the source filed them. Rule for the calls: active = hit-call score of the fitted dose curve at least 0.9, where 1 is the maximum; inactive = score below 0.9.
A correct response names exactly one class from YES (active), NO (inactive)

Nc1ccc([N+](=O)[O-])cc1 : NO
O=C(Nc1ccccc1)c1ccccc1I : YES
[O-][Cl+]O : NO
CCN(CC)CCO : NO

Per the assay record, what outcome was assigned to `O=C1CCCO1` ?
NO

Per the assay record, what outcome was assigned to `[Cl-].[Cl-].[Hg+2]` ?
NO

Per the assay record, what outcome was assigned to `COC(=O)c1ccccc1N` ?
NO

Per the assay record, what outcome was assigned to `O=[N+]([O-])C(Br)(CO)CO` ?
NO

Per the assay record, what outcome was assigned to `c1ccc(NNc2ccccc2)cc1` ?
NO

###

Read-out: Matrix Metallopeptidase 9 (MMP9), MMP9 (gene 4318)
test-protocol: BSK_KF3CT_MMP9: BioMAP Diversity Plus: KF3CT Assay for Matrix Metallopeptidase 9 (MMP9) Biomarker Activity (AID 2283074)
condition-description: primary human keratinocytes with fibroblasts; actives raise or lower the signal
Activity calls are given as the source filed them. Rule for the calls: active = hit-call score of the fitted dose curve at least 0.9, where 1 is the maximum; inactive = score below 0.9.
A correct response names exactly one class from True = active, False = inactive

Cc1ccc(N=C=O)cc1N=C=O : False
[As]#[In] : False
Clc1ccc(C(c2ccc(Cl)cc2)C(Cl)(Cl)Cl)cc1 : True

API: the following record is the query input.
Per the assay record, what outcome was assigned to `CCCCCCCCOC(=O)c1ccc(C(=O)OCCCCCCCC)c(C(=O)OCCCCCCCC)c1` ?
False

###

test-protocol: CCTE_Mundy_HCI_Cortical_Synap_Neur_Matur_NeuriteCount: CCTE's Synaptogenesis and Neurite Maturation Assay in rat cortical cells for Neurite Count, Mundy Lab (AID 2284222)
The source made the active and inactive calls. How the source made its calls: active means hit-call score of the fitted dose curve at least 0.9, where 1 is the maximum; inactive means score below 0.9.
quantity: AC50

CC(C)(C)C(O)(CCc1ccc(Cl)cc1)Cn1cncn1 (stereo unspecified) : inactive
CC(C)COC(=O)c1ccccc1C(=O)OCC(C)C : 88.7 µM (active)
ClC1=C(Cl)C2(Cl)C3C(Cl)C=CC3C1(Cl)C2(Cl)Cl (stereo unspecified) : 14.9 µM (active)
COP(=S)(OC)SCN1C(=O)c2ccccc2C1=O : inactive
COC(=O)Nc1nc2ccccc2[nH]1 : inactive

We next turn to a different compound, shown below.
Record request: AC50 value, item `CCCCOC(=O)c1ccccc1C(=O)OCc1ccccc1`
inactive

###

experimental-system: human Serotonin, 5-Hydroxytryptamine Receptor 3 (5HT3), HTR3A (gene 3359)
test-protocol: NVS_LGIC_h5HT3: NovaScreen (NVS) Ligand-Gated Ion Channel Assay for human Serotonin, 5-Hydroxytryptamine Receptor 3 (5HT3) (AID 2283325)
Protocol: NVS_LGIC_h5HT3 is a biochemical, single-readout assay that uses extracted gene-proteins from HEK293 in a cell-free assay. Measurements were taken 1 hour after chemical dosing in a 96-well plate.NVS_LGIC_h5HT3 is one of one assay component(s) measured or calculated from the NVS_LGIC_h5HT3 assay. […] This assay endpoint, NVS_LGIC_h5HT3, was analyzed in the positive analysis fitting direction relative to DMSO as the negative control and baseline of activity. […]
Records with an inconclusive call do not appear. Activity calls are given as the source filed them. How the source made its calls: active means hit-call score of the fitted dose curve at least 0.9, where 1 is the maximum; inconclusive means response in the unintended direction; inactive means score below 0.9.
A correct response names exactly one class from active, inactive

Worked cases, answers included:
O=C(Oc1ccc(Br)cc1)N1CCN2CCC1CC2 : active
Cc1cccc(N)c1N : inactive
Nc1ccc(N=Nc2ccccc2)cc1 : active

Per the assay record, what outcome was assigned to `Brc1ccc(Oc2ccccc2)cc1` ?
inactive
